Target: Inward rectifier potassium channel 2 (Mus musculus)
Experiment: blocks the mouse Kir2.1 inward-rectifier potassium channel (AID 1672);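 note: channel flux triggered by added potassium and thallium sulfate stimulus; B-score of peak minus minimum fluorescence over baseline after thallium stimulus; more negative B-score means stronger Kir2.1 block with less thallium influx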
Conditions: HEK293-Kir2.1, FluxOR thallium flux fluorescence; at 10 µM; active compounds read low
Screen size: about 310,000 compounds; about 2,600 (0.84%) were called active. The sample as a whole holds a higher share of actives than the screen did.
Exam item: assign YES to entries whose B-score is below -0.6 and NO to entries at or above -0.6. Note that a value of exactly -0.6 receives NO.

# Compound, System, Label value
rows = [
    ("CCCCN(C(=O)c1ccc(S(=O)(=O)N2CCOCC2)cc1)C1CCS(=O)(=O)C1 (configuration not stated)", "Inward rectifier potassium channel 2 (Mus musculus)", "YES"),
]

Is the reported B-score for COc1cccc(CC2(CO)CCCN(Cc3nc(-c4cccs4)oc3C)C2)c1 (configuration not stated) strictly below -0.6?
NO

Just wondering, is B-score of CC(=O)NC(C)c1nc2ccccc2n1Cc1ccccc1F (configuration not stated) below -0.6?
YES

Please determine if CCn1c2ccccc2c2cc(NC(=O)COC(=O)c3ccccc3Br)ccc21 is below -0.6 in terms of B-score.
NO

Does O=C(NCc1ccccn1)Nc1ccc(Cl)cc1 have B-score strictly under -0.6?
NO

Report whether reported B-score is lower than -0.6 (strictly) for Cc1ccc2c(C)c(C(=O)N3CCN(c4ccncc4)CC3)oc2c1C
NO

Report whether reported B-score is lower than -0.6 (strictly) for COc1ccc(C#Cc2c(-c3ccc(OC)cc3)oc3ccc(-c4ccc5c(c4)OCO5)cc23)cc1
NO

For OCCNc1nc2ccccc2n1-c1ncnc2sc3c(c12)CCC3 , is the recorded B-score below the cut-off of -0.6?
YES

###

Exercise: state measured B-score for each of the compounds provided.
Molecular target: Inward rectifier potassium channel 2 (Mus musculus)
Experiment: blocks the mouse Kir2.1 inward-rectifier potassium channel (AID 1672);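 note: channel flux triggered by added potassium and thallium sulfate stimulus; B-score of peak minus minimum fluorescence over baseline after thallium stimulus; more negative B-score means stronger Kir2.1 block with less thallium influx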
Settings: HEK293-Kir2.1, FluxOR thallium flux fluorescence; at 10 µM; active compounds read low
Screen size: about 310,000 compounds; about 2,600 (0.84%) were called active. Many of the other results were omitted from the sample, so actives are more common in it than they were.

Some compounds with recorded B-score:
# Compound, B-score
rows = [
    ("O=C(NCC(c1ccco1)N1CCc2ccccc21)c1cccc(F)c1 (stereo not given)", "-0.73 (inactive)"),
    ("Cc1ccc(NC(=O)c2cnc(SCC(=O)NCC3CCCO3)n(C)c2=O)cc1 (stereo not given)", "0.42 (inactive)"),
    ("COc1ccc(NS(=O)(=O)c2ccc(C)c(C(=O)N(C)Cc3ccc(OC)cc3OC)c2)cc1", "0.75 (inactive)"),
]

Items follow; give B-score for each.
1. COC(=O)c1ccc(NS(=O)(=O)c2cc3c4c(c2)C(C)C(=O)N4CCC3)cc1 (stereo not given)
2. CCC(C(=O)OCCN(CC)CC)c1ccccc1 (stereo not given)

-0.99 (inactive)
0.4 (inactive)

###

Molecular target: Inward rectifier potassium channel 2 (Mus musculus)
Assay: blocks the mouse Kir2.1 inward-rectifier potassium channel (AID 1672);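 note: channel flux triggered by added potassium and thallium sulfate stimulus; B-score of peak minus minimum fluorescence over baseline after thallium stimulus; more negative B-score means stronger Kir2.1 block with less thallium influx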
Conditions: HEK293-Kir2.1, FluxOR thallium flux fluorescence; at 10 µM; active compounds read low
Hit rate of the full screen: of about 310,000 compounds, about 2,600 (0.84%) were called active. The sample holds actives, similar compounds and a random draw of the others, so the mix is not that of the screen.
B-score vs -0.03: less than gives criterion met; not less than gives criterion not met.

# Compound, Label value
data = [
    ("CCOc1ccc(NC(=O)CN(C)C(=O)COc2cccc(CC)c2)cc1OCC", "criterion met"),
    ("Cc1ccc(-n2c(Cc3cccs3)nnc2SCC(=O)OC(C)C)cc1", "criterion met"),
    ("O=C(Nc1ccc(S(=O)(=O)N2CCCCC2)cc1)C1CCN(C(=O)c2ccc(F)cc2)CC1", "criterion met"),
    ("C=C(C)CNC(=O)c1ccc(OC2CCN(C(=O)COC)CC2)cc1", "criterion not met"),
    ("O=C(COC(=O)c1ccc(F)cc1)Nc1nc2ccc([N+](=O)[O-])cc2s1", "criterion met"),
]

Dear reviewer, please state whether COc1cccc(CN(C)CC(=O)Nc2sc3c(c2C#N)CCC3)c1 has B-score strictly beneath -0.03.
criterion not met
